# Organism: Rattus norvegicus
# assay notes: Agonist activity at calcium channel in albino rat ileum assessed as induction of spasmogenic action by measuring contraction of ileum at 10^-3 M measured for 3 mins relative to acetylcholine
# Format: tissue-based
test readout: Activity (%)
API: value field is a number in %; no unit string.

Completed entries (count: 3):
{"molecule": "COc1cc2c(cc1OC)C(N(C)C)C(C)=C2 (centres undefined)", "units text": "%", "measured value": 49.5}
{"molecule": "CCCC1=Cc2cc(OC)c(OC)cc2C1N(C)C (centres undefined)", "units text": "%", "measured value": 43.6}
{"molecule": "CCCCC1=Cc2cc(OC)c(OC)cc2C1N(C)C (centres undefined)", "units text": "%", "measured value": 46.7}

Now for another entry.
Query: Activity; subject: CCC1=Cc2cc(OC)c(OC)cc2C1N(C)C (centres undefined)
45.3

* * *

# Organism: Rattus norvegicus
# assay notes: Antagonist activity at calcium channel in albino rat ileum assessed as inhibition of acetylcholine-induced spasmogenic action by measuring contraction of ileum at 10^-5 acetylcholine induction (reference value: 80 +/- 5%)
# Assay type: tissue-based
# Design: scale not given: the % may be the effect or the level left
test readout: Activity (%)
API: value field is a number in %; no unit string.

Completed entries (count: 3):
{"molecule": "CCC1=Cc2cc(OC)c(OC)cc2C1N(C)C (centres undefined)", "units text": "%", "Activity": 105}
{"molecule": "CCCCC1=Cc2cc(OC)c(OC)cc2C1N(C)C (centres undefined)", "units text": "%", "Activity": 108}
{"molecule": "COc1cc2c(cc1OC)C(N(C)C)C(C)=C2 (centres undefined)", "units text": "%", "Activity": 113}

Now for another entry.
Query: Activity; subject: CCCC1=Cc2cc(OC)c(OC)cc2C1N(C)C (centres undefined)
110

* * *

# Organism: Rattus norvegicus
# assay notes: Antagonist activity at calcium channel in albino rat ileum assessed as inhibition of acetylcholine-induced spasmogenic action by measuring contraction of ileum at 10^-4 acetylcholine induction (reference value: 80 +/- 5%)
# Type: tissue-based
# Set-up: scale not given: the % may be the effect or the level left
test readout: Activity

Completed entries (count: 3):
{"molecule": "CCC1=Cc2cc(OC)c(OC)cc2C1N(C)C (centres undefined)", "test readout": "Activity", "measured value": "91.5%"}
{"molecule": "CCCC1=Cc2cc(OC)c(OC)cc2C1N(C)C (centres undefined)", "test readout": "Activity", "measured value": "96.6%"}
{"molecule": "CCCCC1=Cc2cc(OC)c(OC)cc2C1N(C)C (centres undefined)", "test readout": "Activity", "measured value": "78.6%"}

Now for another entry.
Query: Activity; subject: COc1cc2c(cc1OC)C(N(C)C)C(C)=C2 (centres undefined)
94.4%

* * *

Below, each entry is listed alongside its reported Activity.
# Species on record: Rattus norvegicus
# assay notes: Antagonist activity at calcium channel in albino rat ileum assessed as inhibition of PGF-2alpha-induced spasmogenic action by measuring contraction of ileum at 10^-3 M preincubated for 3 mins followed by PGF-2alpha induction (reference value: 76 +/- 4%)
# Format: tissue-based
# Parameters: scale not given: the % may be the effect or the level left
API: value field is a number in %; no unit string.

Completed entries (count: 3):
{"molecule": "COc1cc2c(cc1OC)C(N(C)C)C(C)=C2 (centres undefined)", "measured value": 124}
{"molecule": "CCC1=Cc2cc(OC)c(OC)cc2C1N(C)C (centres undefined)", "measured value": 62}
{"molecule": "CCCC1=Cc2cc(OC)c(OC)cc2C1N(C)C (centres undefined)", "measured value": 49.1}

Query: Activity; subject: CCCCC1=Cc2cc(OC)c(OC)cc2C1N(C)C (centres undefined)
65.2

* * *

# Species on record: Rattus norvegicus
# assay notes: Agonist activity at calcium channel in albino rat ileum assessed as induction of spasmogenic action by measuring contraction of ileum at 10^-4 M measured for 3 mins relative to acetylcholine
# Type: tissue-based
Below, each entry is listed alongside its reported Activity.
API: value field is a number in %; no unit string.

Completed entries (count: 3):
{"compound": "CCC1=Cc2cc(OC)c(OC)cc2C1N(C)C (centres undefined)", "units text": "%", "measured value": 28.9}
{"compound": "CCCCC1=Cc2cc(OC)c(OC)cc2C1N(C)C (centres undefined)", "units text": "%", "measured value": 25.3}
{"compound": "COc1cc2c(cc1OC)C(N(C)C)C(C)=C2 (centres undefined)", "units text": "%", "measured value": 20.6}

Query: Activity; subject: CCCC1=Cc2cc(OC)c(OC)cc2C1N(C)C (centres undefined)
42.7

* * *

# Species: Rattus norvegicus
# assay notes: Antagonist activity at calcium channel in albino rat ileum assessed as inhibition of PGF-2alpha-induced spasmogenic action by measuring contraction of ileum at 10^-6 M preincubated for 3 mins followed by PGF-2alpha induction (reference value: 76 +/- 4%)
# Format: tissue-based
# Design: scale not given: the % may be the effect or the level left
test readout: Activity (%)
API: value field is a number in %; no unit string.

Completed entries (count: 2):
{"molecule": "COc1cc2c(cc1OC)C(N(C)C)C(C)=C2 (centres undefined)", "test readout": "Activity", "measured value": 111}
{"molecule": "CCCCC1=Cc2cc(OC)c(OC)cc2C1N(C)C (centres undefined)", "test readout": "Activity", "measured value": 101}

Query: Activity; subject: CCC1=Cc2cc(OC)c(OC)cc2C1N(C)C (centres undefined)
98.7

Next molecule: CCCC1=Cc2cc(OC)c(OC)cc2C1N(C)C (centres undefined)
104

* * *

# Species: Rattus norvegicus
# assay notes: Antagonist activity at calcium channel in albino rat ileum assessed as inhibition of PGF-2alpha-induced spasmogenic action by measuring contraction of ileum at 10^-5 M preincubated for 3 mins followed by PGF-2alpha induction (reference value: 76 +/- 4%)
# Format: tissue-based
# Parameters: scale not given: the % may be the effect or the level left
test readout: Activity (%)
API: value field is a number in %; no unit string.

Completed entries (count: 3):
{"compound": "CCCCC1=Cc2cc(OC)c(OC)cc2C1N(C)C (centres undefined)", "Activity, %": 91.1}
{"compound": "CCC1=Cc2cc(OC)c(OC)cc2C1N(C)C (centres undefined)", "Activity, %": 108}
{"compound": "CCCC1=Cc2cc(OC)c(OC)cc2C1N(C)C (centres undefined)", "Activity, %": 99.3}

Now for another entry.
Query: Activity; subject: COc1cc2c(cc1OC)C(N(C)C)C(C)=C2 (centres undefined)
108
